# System: MDA-MB-231 xenografts
# experimental_details: MDA-MB-231 xenografts in nude mice
# Type: in vivo, BALB/nu/nu mice
# setup_conditions: MDA-MB-231 xenograft nude mice, before dosing
measurement_kind: Body weight (g) Pre-dose
Give your result as the value with the unit written after it.

1) CC[C@]1(O)C[C@@H]2CN(CCc3c([nH]c4ccccc34)[C@@](C(=O)OC)(c3cc4c(cc3OC)N(C)[C@H]3[C@@](O)(C(=O)NN)[C@H](O)[C@]5(CC)C=CCN6CC[C@]43[C@@H]65)C2)C1 [JJ-CCJ, hydrazinolyzed vinblastine]: 20.3 ± 0.7 g

Note: attention shifts to another entry.
Challenge: Requested read-out: Body weight (g) Pre-dose. Entry: CCC12C=CCN3CCC4(c5cc(C6(C(=O)OC)CC7CC(C(C)(F)F)CN(Cc8c6[nH]c6ccccc86)C7)c(OC)cc5N(C)C4C(O)(C(=O)NNC(=O)C4CCCN4C(=O)CNC(=O)OCc4ccccc4)C1O)C32 (centres unmarked)
Response given: 20.2 ± 0.7 g

Origin of values: patent US10377774B2
